# protocol-summary: Pharmacokinetic profiles of PEGylated peptides in Fisher 344 rats
# Assay type: in vivo, rat
# condition-notes: 100 μg agonist/kg, plasma RIA, mean N = 3
Where no end group is shown, it is not given here.
Criterion: T½ strictly less than 20 h. Met: Criterion met. Not met: Criterion not met.

Before answering, review these 3 worked examples.
substance	group
C6-HSDAVFTEQY(OMe)TOrnLRAibQVAAAibOrnYLQSIOrnC(PEG20K)OrnGGPSSGAPPPC(PEG20K)-NH2 (HSDAVFTEQYTXLRXQVAAXXYLQSIXCXGGPSSGAPPPC; C6 acyl, two PEG20K, C-terminal amide; Synthetic sequence PEGylated VPAC2 receptor agonist) [Agonist P505]	Criterion not met
C6-HSDAVFTEQY(OMe)TOrnLRAibQLAAbuAibOrnYLQSIOrnC(PEG40K)OrnGGPSSGAPPPS-NH2 (HSDAVFTEQYTXLRXQLAXXXYLQSIXCXGGPSSGAPPPS; C6 acyl, PEG40K on Cys, C-terminal amide; Synthetic sequence PEGylated VPAC2 receptor agonist) [Agonist P539]	Criterion met
C6-HSDAVFTEQY(OMe)TOrnLRAibQLAAbuAibOrnYAibQSIOrnOrnGGPSSGAPPPC(PEG20K)C(PEG20K)-NH2 (HSDAVFTEQYTXLRXQLAXXXYXQSIXXGGPSSGAPPPCC; C6 acyl, two PEG20K, C-terminal amide; Synthetic sequence PEGylated VPAC2 receptor agonist) [Agonist P521]	Criterion met

Quick check: T½ of C6-HSDAVFTEQY(OMe)TOrnLRAibQLAAbuAibOrnyLQAibIOrnOrnGGPSSGAPPPC(PEG30K)C(PEG30K)-NH2 (HSDAVFTEQYTXLRXQLAXXXYLQXIXXGGPSSGAPPPCC; not fully specified (some residues, N-terminus, C-terminus); printed as C6-HSDAVFTEQY(OMe)TOrnLRAibQLAAbuAibOrnyLQAibIOrnOrnGGPSSGAPPPC(PEG30K)C(PEG30K)-NH2; cysteine pairing not given here) [Agonist P570] under 20 h? Criterion not met

Quick check: T½ of C6-HSDAVFTEQY(OMe)TOrnLRAibQC(PEG40K)AAbuAibOrnYLQAibIOrnOrnGGPSSGAPPPS-NH2 (HSDAVFTEQYTXLRXQCAXXXYLQXIXXGGPSSGAPPPS; C6 acyl, PEG40K on Cys, C-terminal amide; Synthetic sequence PEGylated VPAC2 receptor agonist) [Agonist P545] under 20 h? Criterion not met

Quick check: T½ of C6-HSDAVFTEQY(OMe)TOrnLRAibQVAAAibOrnYLQSIOrnOrnC(PEG20K)GGPSSGAPPPC(PEG20K)NH2 (HSDAVFTEQYTXLRXQVAAXXYLQSIXXCGGPSSGAPPPC; C6 acyl, two PEG20K, C-terminal amide; Synthetic sequence PEGylated VPAC2 receptor agonist) [Agonist P562] under 20 h? Criterion not met

Quick check: T½ of C6-HSDAVFTEQY(OMe)TOrnLRAibQLAAbuAibOrnYAibQAibIOrnOrnGGPSSGAPPPC(PEG20K)C(PEG20K)-NH2 (HSDAVFTEQYTXLRXQLAXXXYXQXIXXGGPSSGAPPPCC; C6 acyl, two PEG20K, C-terminal amide; Synthetic sequence PEGylated VPAC2 receptor agonist) [Agonist P525] under 20 h? Criterion not met

* * *

# assay-target: Rat VPAC1 Receptor (Rattus norvegicus, UniProt P30083)
# Construct: expressed in transfected cells; host or cells: CHO-PO (transient, Lipofectamine)
# Sequence (P30083 31-459): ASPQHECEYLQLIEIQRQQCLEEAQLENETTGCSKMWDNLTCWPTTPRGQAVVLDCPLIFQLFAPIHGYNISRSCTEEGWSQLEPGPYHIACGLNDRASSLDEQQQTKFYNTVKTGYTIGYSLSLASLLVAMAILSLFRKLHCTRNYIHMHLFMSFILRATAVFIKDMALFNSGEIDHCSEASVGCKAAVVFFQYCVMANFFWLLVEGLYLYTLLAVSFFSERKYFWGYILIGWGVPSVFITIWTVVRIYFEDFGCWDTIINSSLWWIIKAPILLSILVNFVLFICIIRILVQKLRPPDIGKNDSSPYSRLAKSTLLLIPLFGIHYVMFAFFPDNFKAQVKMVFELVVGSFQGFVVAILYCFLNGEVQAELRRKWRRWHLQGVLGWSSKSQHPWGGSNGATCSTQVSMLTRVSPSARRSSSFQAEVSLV
# protocol-summary: DiscoveRx cAMP potency, CHO-PO cells transiently transfected with rat VPAC1 receptor
# Format: cell-based
# condition-notes: cAMP generation
# Protocol: DiscoveRx: CHO-PO cells are transiently transfected with rat VPAC1 or VPAC2 receptor DNA using commercially available transfection reagents (Lipofectamine from Invitrogen). […] On the day of the experiment, the medium is removed. […] EC50 values for cAMP generation are calculated from the raw signal or are based on absolute cAMP levels as determined by a standard curve performed on each plate. […]
Criterion: EC50 strictly less than 400 nM. Met: condition met. Not met: condition not met.

substance	group
C6-HSDAVFTEQY(OMe)TOrnLRAibQC(PEG40K)AAbuAibOrnY(OMe)LQAibIOrnOrnGGPSSGAPPPS-NH2 (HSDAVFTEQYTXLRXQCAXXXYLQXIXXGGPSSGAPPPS; C6 acyl, non-natural residues, PEG40K, C-terminal amide; Synthetic sequence PEGylated VPAC2 receptor agonist) [Agonist P578]	condition met
C6-HSDAVFTEQY(OMe)TOrnLRAibQLAAbuAibOrnY(OMe)LQSIOrnC(PEG40K)OrnGGPSSGAPPPS-NH2 (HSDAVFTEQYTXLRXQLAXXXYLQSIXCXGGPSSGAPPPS; C6 acyl, non-natural residues, PEG40K, C-terminal amide; Synthetic sequence PEGylated VPAC2 receptor agonist) [Agonist P584]	condition met
C6-HSDAVFTEQY(OMe)TOrnLRAibQC(PEG20K)AAAibOrnYLQSIOrnOrnGGPSSGAPPPC(PEG20K)-NH2 (HSDAVFTEQYTXLRXQCAAXXYLQSIXXGGPSSGAPPPC; C6 acyl, two PEG20K, C-terminal amide; Synthetic sequence PEGylated VPAC2 receptor agonist) [Agonist P568]	condition not met
C6-HSDAVFTEQY(OMe)TOrnLRAibQLAAbUAibOrnY(OMe)LQAibIOrnC(PEG40K)OrnGGPSSGAPPPS-NH2 (HSDAVFTEQYTXLRXQLAXXXYLQXIXCXGGPSSGAPPPS; C6 acyl, non-natural residues, PEG40K, C-terminal amide; Synthetic sequence PEGylated VPAC2 receptor agonist) [Agonist P576]	condition not met
C6-HSDAVFTEQY(OMe)TOrnLRAibQC(PEG40K)AAbuAibOrnY(OMe)LQSIOrnOrnGGPSSGAPPPS-NH2 (HSDAVFTEQYTXLRXQCAXXXYLQSIXXGGPSSGAPPPS; C6 acyl, non-natural residues, PEG40K, C-terminal amide; Synthetic sequence PEGylated VPAC2 receptor agonist) [Agonist P586]	condition not met

# input for lookup
Quick check: EC50 of C6-HSDAVFTEQY(OMe)TOrnLRAibQVAAAibOrnYAibQSIOrnOrnGGPSSGAPPPC(PEG40K)-NH2 (HSDAVFTEQYTXLRXQVAAXXYXQSIXXGGPSSGAPPPC; C6 acyl, PEG40K on Cys, C-terminal amide; Synthetic sequence PEGylated VPAC2 receptor agonist) [Agonist P507] under 400 nM? condition not met

* * *

# assay-target: Human VPAC2 Receptor (Homo sapiens, UniProt P41587)
# Sequence (P41587 24-438): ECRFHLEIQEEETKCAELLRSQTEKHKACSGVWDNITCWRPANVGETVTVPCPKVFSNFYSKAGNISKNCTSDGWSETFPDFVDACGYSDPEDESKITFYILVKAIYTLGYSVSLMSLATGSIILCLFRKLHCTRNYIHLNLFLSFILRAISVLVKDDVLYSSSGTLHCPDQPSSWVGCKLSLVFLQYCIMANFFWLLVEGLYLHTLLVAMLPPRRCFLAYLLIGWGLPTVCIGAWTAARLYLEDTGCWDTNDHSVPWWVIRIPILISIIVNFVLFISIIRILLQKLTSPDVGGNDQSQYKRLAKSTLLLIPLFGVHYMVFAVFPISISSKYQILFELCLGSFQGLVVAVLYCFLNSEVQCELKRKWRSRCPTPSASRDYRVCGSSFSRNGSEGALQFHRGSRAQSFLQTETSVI
# protocol-summary: Alpha screen cAMP potency at human VPAC2 receptor
# Type: cell-based
# condition-notes: cAMP generation; read-out: Human VPAC2 Receptor: Alphascreen (EC50; nM)
Reported EC50 values for a set of substances
Number only, in nM; omit the unit.

Below: 2 substances and their reported EC50.
substance	EC50 / nM
C6-HSDAVFTEQY(OMe)TOrnLRAibQLAAbuAibOrnY(OMe)LQSIOrnC(PEG40K)OrnGGPSSGAPPPS-NH2 (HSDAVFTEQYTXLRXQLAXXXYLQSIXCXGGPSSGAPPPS; C6 acyl, non-natural residues, PEG40K, C-terminal amide; Synthetic sequence PEGylated VPAC2 receptor agonist) [Agonist P584]	51.2
C6-HSDAVFTEQY(OMe)TOrnLRAibQLAAbUAibOrnY(OMe)LQAibIOrnC(PEG40K)OrnGGPSSGAPPPS-NH2 (HSDAVFTEQYTXLRXQLAXXXYLQXIXCXGGPSSGAPPPS; C6 acyl, non-natural residues, PEG40K, C-terminal amide; Synthetic sequence PEGylated VPAC2 receptor agonist) [Agonist P576]	55

Could you share what EC50 was measured for C6-HSDAVFTEQY(OMe)TOrnLRAibQVAAAibK(CO(CH2)2SPEG40K)YLQSIOrnOrnGGPSSGAPPPS-NH2 (HSDAVFTEQYTXLRXQVAAXXYLQSIXXGGPSSGAPPPS; C6 acyl; PEG40K; non-natural residues; amide; Synthetic sequence PEGylated VPAC2 receptor peptide agonist) [Agonist P472] , tested on Human VPAC2 Receptor (Homo sapiens, UniProt P41587)? 123
